- Test system: Bacillus subtilis
- assay: Antimicrobial activity against Bacillus subtilis incubated in dark for 3 hrs by disk diffusion method
- Assay type: functional
Task for the reader: assign each of the following compounds its reported inhibition zone (IZ).
Lab book: enter the figure in mm, no units written.

Value of inhibition zone (IZ) reported for the compound O=c1cc(-c2ccccc2)c2ccc3oc4ccccc4c3c2o1 is 13

Value of inhibition zone (IZ) reported for the compound Cc1cc(=O)oc2ccc3oc4ccccc4c3c12 is 11

Value of inhibition zone (IZ) reported for the compound O=c1cc(-c2ccccc2)c2cc3c(cc2o1)oc1ccccc13 is 10

Value of inhibition zone (IZ) reported for the compound Cc1cc(=O)oc2cc3c(cc12)oc1ccccc13 is 12

Value of inhibition zone (IZ) reported for the compound O=c1cc(-c2ccccc2)c2cc3c4c(oc3cc2o1)CCCC4 is 9
